The values you see were collected from patent US7462636B2.

Assay: Oral availability in the rat (serum concentration, LC-MS)
Assay type: in vivo
Conditions: both sexes, po, 10 mg/kg, oral, DMSO formulation, at 30 min, read-out: serum concentration
RECORDED METRIC: concentration at 30 min (ng/mL)
Your answer is read as ng/mL, so omit the unit and give the number.

Query: # concentration at 30 min lookup, item CC(C)CN(C[C@@H](O)[C@H](Cc1ccccc1)NC(=O)O[C@H]1CO[C@H]2OCC[C@H]21)S(=O)(=O)c1ccc2onc(N)c2c1
Reply: 10.2

====

Experiment: Toxicity on mock-infected MT4 cells (MTT)
Assay type: cell-based
Conditions: human
RECORDED METRIC: CC50 at 5 days

Query: # CC50 at 5 days lookup, item CC(C)CN(C[C@@H](O)[C@H](Cc1ccccc1)NC(=O)O[C@H]1CO[C@H]2OCC[C@H]21)S(=O)(=O)c1ccc2onc(N)c2c1
Reply: > 100 µM
